experiment: qHTS assay to identify aromatase inhibitors - cell viability counter screen (AID 743084); conditions: MCF-7 aro ERE viability, CellTiter-Fluor, 24 h; series mostly up to 70.3 µM;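 further: cells stimulated with testosterone during compound exposure; nearly all actives have a fitted effect of over 55% in size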
Records with an inconclusive call do not appear. The source made the active and inactive calls. The call rests on the fitted dose curve; in most records, active means well fitted cell-killing curve with a large enough effect in the repeat runs; inconclusive means weak or mixed curves, or effect the other way; inactive means no such curve, though single readings can be large or run the other way.
API: response.call in true = active, false = inactive

# outcome recorded in this test, key = N[C@H](C(=O)O)[C@@H]1CC(Cl)=NO1
false

# outcome recorded in this test, key = CN=C(N)NCCC[C@H](N)C(=O)O
false

# outcome recorded in this test, key = NCCO/C=C/[C@H](N)C(=O)O
false

# outcome recorded in this test, key = NC(=O)[C@@H]1C[C@]2(NC(=O)NC2=O)c2cc(F)ccc2O1
false

# outcome recorded in this test, key = CO/N=C(\C(=O)N[C@@H]1C(=O)N2C(C(=O)[O-])=C(C[n+]3cccc4c3CCC4)CS[C@H]12)c1csc(N)n1
false

# outcome recorded in this test, key = C[N+](C)(C)CCOP(=O)(O)OP(=O)([O-])OC[C@H]1O[C@@H](n2ccc(N)nc2=O)[C@H](O)[C@@H]1O
false

# outcome recorded in this test, key = Cc1cccc(C)c1NC(=O)C1CCCCN1C (centres undefined)
false

# outcome recorded in this test, key = COC(=O)[C@H]1[C@H]2C[C@H]3c4[nH]c5ccccc5c4CCN3C[C@H]2CC[C@@H]1O
false

# outcome recorded in this test, key = CCCCC[C@H](O)/C=C/[C@@H]1[C@@H](C/C=C\CCCC(=O)O)[C@@H](O)C[C@H]1O
false

# outcome recorded in this test, key = CO/N=C(\C(=O)N[C@@H]1C(=O)N2C(C(=O)O)=C(C[N+]3(C)CCCC3)CS[C@H]12)c1csc(N)n1
false

# outcome recorded in this test, key = CC/C(=C(/CC)c1ccc(OP(=O)(O)O)cc1)c1ccc(OP(=O)(O)O)cc1
false

# outcome recorded in this test, key = Nc1cc(Cl)c(NC2=NCCN2)c(Cl)c1
false

# outcome recorded in this test, key = O=P(O)(O)CP(=O)(O)O
false

# outcome recorded in this test, key = CON=C1C[C@]2(C[C@@H]3C[C@@H](C/C=C(\C)C[C@@H](C)/C=C/C=C4\CO[C@@H]5[C@H](O)C(C)=C[C@@H](C(=O)O3)[C@]45O)O2)O[C@H](/C(C)=C/C(C)C)[C@H]1C
false

# outcome recorded in this test, key = CC(C)(S)C(=O)N[C@@H](CS)C(=O)O
false

# outcome recorded in this test, key = C=N[C@@H](C(=O)N[C@@H]1C(=O)N2[C@@H]1SC(C)(C)[C@@H]2C(=O)O)c1ccccc1
false

# outcome recorded in this test, key = Cc1ncc(C[n+]2csc(CCOP(=O)(O)O)c2C)c(N)n1
false

# outcome recorded in this test, key = CC(=O)NC[C@H]1CN(c2ccc(N3CCOCC3)c(F)c2)C(=O)O1
false

# outcome recorded in this test, key = CN1C(C(=O)Nc2ccccn2)C(=O)c2sc(Cl)cc2S1(=O)=O (centres undefined)
false

# outcome recorded in this test, key = O=C1CC[C@@H](C(=O)N[C@H]2C[C@@H]2c2ccccc2)N1
false

# outcome recorded in this test, key = CN(C)CCC(O)(c1ccccc1)c1ccccc1Cl (centres undefined)
false

# outcome recorded in this test, key = CNC(=O)OCc1cccc(COC(=O)NC)n1
false

# outcome recorded in this test, key = CC(=O)Oc1cc(C(F)(F)F)ccc1C(=O)O
false

# outcome recorded in this test, key = CC(C)CCC[C@@H](C)[C@H]1CC[C@H]2[C@@H]3CC=C4C[C@@H](O)CC[C@]4(C)[C@H]3CC[C@]12C
false

# outcome recorded in this test, key = CCN1CCCC1CNC(=O)c1cc(S(=O)(=O)CC)ccc1OC (centres undefined)
false

# outcome recorded in this test, key = COc1cccc2c1[C@@H]1CN(CCCCn3c(=O)[nH]c4c(sc5ncc(-c6ccccc6)nc54)c3=O)C[C@@H]1CO2
true

# outcome recorded in this test, key = Cc1cnc(C(=O)O)c[n+]1[O-]
false

# outcome recorded in this test, key = O=C(O)/C=C/C(O)c1ccc(Cl)cc1 (centres undefined)
false

# outcome recorded in this test, key = C/C=C/C1=C(C(=O)O)N2C(=O)[C@@H](NC(=O)[C@H](N)c3ccc(O)cc3)[C@H]2SC1
false

# outcome recorded in this test, key = C[Se]CC[C@H](N)C(=O)O
false

# outcome recorded in this test, key = N=C(N)c1ccc(/C=C/c2ccc(C(=N)N)cc2O)cc1
false

# outcome recorded in this test, key = NC[C@@H]1CC[C@@H](N)[C@@H](O[C@H]2[C@H](O)[C@@H](O[C@H]3O[C@H](CO)[C@@H](O)[C@H](N)[C@H]3O)[C@H](N)C[C@@H]2N)O1
false

# outcome recorded in this test, key = C(=C\c1ccncc1)/c1ccccc1
false

# outcome recorded in this test, key = N#Cc1nc(Cl)c(Cl)c(Cl)c1Cl
true

All figures here come from PubChem BioAssay (Tox21).
